Observed pIC50, system human CB2 receptor (Homo sapiens).
pIC50: −log10 of the molar value.

# compound, pIC50
measured = [
    ("CCCCCc1cc(O)c(C2C=C(C)CCC2)c(O)c1C(=O)NCc1ccccc1Br (centres unmarked) [Compound 57c]", "> 7.00"),
    ("C=C(C)[C@@H]1CCC(C)=C[C@H]1c1c(O)cc(CCCCC)c(C(=O)Nc2ccc(OC)cc2)c1O [Compound 11d]", "6.00 to 7.00"),
    ("CCCCCc1cc(O)c(C2C=C(C)CCC2)c(O)c1C(=O)NC (centres unmarked) [Compound 1c]", "5.30 to 6.00"),
    ("CCCc1c(CN(C)C(=O)OC)c(O)c(C2C=C(C)CCC2)c(O)c1CN(C)C(=O)OC (centres unmarked) [59′c]", "6.00 to 7.00"),
    ("CCCCCc1cc(O)c(C2C=C(C)CCC2)c(O)c1C(=O)N1CCOCC1 (centres unmarked) [Compound 39c]", "5.30 to 6.00"),
    ("C=C(C)[C@@H]1CCC(C)=C[C@H]1c1c(O)cc(CCCCC)c(C(=O)NC2CC2)c1O [Compound 6d]", "5.30 to 6.00"),
    ("CCCCCc1cc(O)c(C2C=C(C)CCC2)c(O)c1C(=O)N1CCN(S(C)(=O)=O)CC1 (centres unmarked) [Compound 37c]", "6.00 to 7.00"),
    ("CCCCCc1cc(O)c(-c2cccc(C)c2)c(O)c1CN(C)C(=O)OC [Compound 59a]", "> 7.00"),
    ("CCCCCc1cc(O)c(C2C=C(C)CCC2)c(O)c1C(=O)NCc1ccccc1 (centres unmarked) [Compound 14c]", "> 7.00"),
    ("CCCCCc1cc(O)c(-c2cccc(C)c2)c(O)c1C(=O)N1CCOCC1 [Compound 39a]", "< 5.30"),
    ("CCCCCc1cc(O)c(C2C=C(C)CCC2)c(O)c1C(=O)NC1CC1 (centres unmarked) [Compound 6c]", "> 7.00"),
    ("CCCCCc1cc(O)c(-c2cccc(C)c2)c(O)c1C(=O)NCc1cccnc1 [Compound 15a]", "6.00 to 7.00"),
    ("C=CCNC(=O)c1c(CCCCC)cc(O)c(C2C=C(C)CCC2)c1O (centres unmarked) [Compound 25c]", "6.00 to 7.00"),
    ("C=C(C)[C@@H]1CCC(C)=C[C@H]1c1c(O)cc(CCCCC)c(C(=O)N2CCOCC2)c1O [Compound 39d]", "5.30 to 6.00"),
    ("CCCCCc1cc(O)c(C2C=C(C)CCC2)c(O)c1C(=O)N1CCCC1 (centres unmarked) [Compound 41c]", "5.30 to 6.00"),
    ("CCCCCc1cc(O)c(C2C=C(C)CCC2)c(O)c1C(=O)NCc1cccnc1 (centres unmarked) [Compound 15c]", "> 7.00"),
    ("CCCCCc1cc(O)c(C2C=C(C)CCC2)c(O)c1CN(C)C(=O)OC (centres unmarked) [Compound 59c]", "> 7.00"),
]
